# Test system: MRP1 cells, doxorubicin viability shift, 10 uM compound
# MEASUREMENT DESCRIPTION: viability protection against doxorubicin, MRP-1 line – cell-based, doxorubicin EC50 shift, dose response (AID 844)
Response key: Criterion met means fold increase in Dox EC50 >= 1; Criterion not met means fold increase in Dox EC50 < 1.

Please review the entries below; each comes with its answer.
CCOP(=O)(OCC)C(NC(=O)Nc1ccc(Cl)cc1)C(=O)N(CC)CC (stereo unspecified) :: Criterion met
O=C1c2cccc(OCc3ccc(F)cc3)c2CCN1Cc1ccc(F)cc1 :: Criterion met

Exercise: For this compound, is measured fold increase in Dox EC50 1 or higher? CSc1ncc(Cl)c(C(=O)Nc2nnc(SC)s2)n1
Solution: Criterion met

Exercise: Could you verify whether the entry N#Cc1c(-c2ccccc2)nc(SCC(=O)Nc2ccccc2F)[nH]c1=O shows fold increase in Dox EC50 of no less than 1?
Solution: Criterion met

Exercise: Reported fold increase in Dox EC50 reaches at least 1 for COc1cccc(-c2csc(NC(=O)Oc3ccccc3)n2)c1 ?
Solution: Criterion met

Exercise: Hello, I need to know if CCN=c1scc(C)n1/N=C/c1ccc(O)c(O)c1O has measured fold increase in Dox EC50 not below 1. Thanks!
Solution: Criterion not met

----------
Quick reference: fold increase in Dox EC50 of the listed items.
# Tested on: MRP1 cells, doxorubicin viability shift, 10 uM compound
# MEASUREMENT DESCRIPTION: viability protection against doxorubicin, MRP-1 line – cell-based, doxorubicin EC50 shift, dose response (AID 844)
Give only the figure.

Worked cases, fold increase in Dox EC50 given:
O=C(N/N=C/c1ccccc1[N+](=O)[O-])c1ccc(COc2ccccc2-c2ccccc2)cc1 :: 1
Cc1cc(NC(=O)c2cc(C(C)C)on2)nn1Cc1ccc(Cl)cc1 :: 1.35
COc1ccc(CSC2=NCCN2)cc1Cl :: 0.63
CCOC(=O)CN1C(=O)C(C)(C)Oc2ccc(C(=O)Nc3ccccc3OC)cc21 :: 0.85
Nc1ccc(CC2SC(=O)NC2=O)cc1 (stereo unspecified) :: 1.24
Cc1ccc(/C=C2\SC(=S)N(CCC(=O)NNS(=O)(=O)c3ccc(C)cc3)C2=O)cc1 :: 0.48
O=C(CC(NC(=O)C(F)(F)F)c1ccccc1)Nc1nnc(CCc2ccccc2)s1 (stereo unspecified) :: 1.85
COc1ccc(-c2nn(-c3ccccc3)cc2C(=O)Nc2nc(CC(C)=O)ns2)cc1 :: 0.99
Cc1ccc(-c2cc(-c3ccccc3)no2)c(O)c1 :: 0.59
CCC(Oc1ccccc1)C(=O)Nc1nnc(C(F)(F)F)s1 (stereo unspecified) :: 1.69

Now turn to the next compound.
Memo: COC(=O)c1ccc(COc2cc(O)c3c(c2)OC(C)(C)CC3=O)cc1 , reported fold increase in Dox EC50: 1.03

----------
# Test system: MRP1 cells, doxorubicin viability shift, 10 uM compound
# MEASUREMENT DESCRIPTION: viability protection against doxorubicin, MRP-1 line – cell-based, doxorubicin EC50 shift, dose response (AID 844)
The source made the active and inactive calls. How the calls were made is not given here.
Permitted responses: y = active, n = inactive

Example entries begin here.
Cc1ccc(NC(=O)CCC(=O)N/N=C/c2cccs2)cc1C :: n
O=C1c2cccc3cccc(c23)C(=O)N1CCN1CCN(CC(O)COc2ccccc2)CC1 (stereo unspecified) :: n
CCc1ccc(C2CC(c3ccccc3C)n3nc(N)nc3N2)cc1 (stereo unspecified) :: n
CCOC(=O)Cc1csc(NC(=S)NC(=O)C(C)(C)C)n1 :: n
Cc1onc(-c2ccccc2)c1C(=O)Nc1nnc(N(C)Cc2ccccc2)s1 :: n
O=C(COC(=O)C1CC2C=CC1C2)Nc1ccc2c(c1)OC(F)(F)O2 (stereo unspecified) :: n

Exercise: What classification did CCC1(C)Cc2c(sc3nnn(CC(=O)Nc4ccc(Cl)cc4)c(=O)c23)CO1 (stereo unspecified) end up with in this test?
Solution: n

Exercise: Give the logged outcome of this assay for the following compound: Cn1c(=O)c2c(nc(OCc3ccccc3)n2C)n(C)c1=O
Solution: n

Exercise: GET /call?item= S=C(NCc1ccccn1)Nc1ccccc1Cl returns the recorded outcome of this test.
Solution: n

Exercise: Per the assay record, what outcome was assigned to Cc1nc(/N=C(\N)NC(=O)N2c3ccccc3Sc3ccccc32)nc2ccccc12 ?
Solution: n

Exercise: Look up the recorded call for Cc1cc(C)nc(NN2C(=O)/C(=C/c3ccccc3)SC2=S)n1 in this test.
Solution: y

----------
# System: MRP1 cells, doxorubicin viability shift, 10 uM compound
# MEASUREMENT DESCRIPTION: viability protection against doxorubicin, MRP-1 line – cell-based, doxorubicin EC50 shift, dose response (AID 844)
The source made the active and inactive calls. The rule behind the calls is not given here.
Choose the fitting class; nothing outside active, inactive is accepted.

O=C(CC(Nc1ccc(F)cc1)C(=O)OCC(=O)c1cccs1)c1ccccc1 (stereo unspecified) :: inactive

Exercise: Dear colleague, could you share the recorded outcome for COc1ccc(C(=O)NCCn2cc(SCC(=O)Nc3nnc(C)s3)c3ccccc32)cc1 when you have a moment?
Solution: inactive

Exercise: Hey, what did the test say about O=C(NC(=S)NC(=O)c1ccccc1F)c1ccccc1F ?
Solution: inactive

Exercise: What call does the record list for CC(CCc1ccccc1)NC(=O)c1nnc(Cc2ccc(Cl)cc2)o1 (stereo unspecified) ?
Solution: inactive

Exercise: Test call for this molecule, please: CC(C)Cn1c2c(c(O)c(C(=O)Nc3ccc(F)cc3)c1=O)CCCC2
Solution: inactive

Exercise: How was Cc1ccc2c(C)nc(/N=C(\N)NC(=O)N3c4ccccc4Sc4ccccc43)nc2c1 classified in this test?
Solution: inactive

----------
# Tested on: MRP1 cells, doxorubicin viability shift, 10 uM compound
# MEASUREMENT DESCRIPTION: viability protection against doxorubicin, MRP-1 line – cell-based, doxorubicin EC50 shift, dose response (AID 844)
Overview of recorded fold increase in Dox EC50 for various compounds
Write the number on its own, no unit after it.

In the examples that follow, each entry is paired with its recorded fold increase in Dox EC50.
O=C1C=C(O)CC(c2ccc(Cl)cc2)C1 (stereo unspecified) :: 1.04
Cc1cc(/C=C2\NC(=O)N(Cc3ccc(Cl)cc3)C2=O)c(C)n1C :: 1.1
COc1cccc(Nc2nc3ccccc3nc2-n2nc(C)cc2C)c1 :: 0.35
Cc1cccc(CC2S/C(=N/c3ccccn3)NC2=O)c1 (stereo unspecified) :: 1.15
O=C(Nc1nc(-c2ccccc2)cs1)c1ccc(Br)o1 :: 1.41

Query O=C(COc1ccc(Br)cc1)N1CCN(C2CCCC2)CC1 yields fold increase in Dox EC50 of 1.08

----------
# Test system: MRP1 cells, doxorubicin viability shift, 10 uM compound
# MEASUREMENT DESCRIPTION: viability protection against doxorubicin, MRP-1 line – cell-based, doxorubicin EC50 shift, dose response (AID 844)
READOUT TYPE: fold increase in Dox EC50
// keep it numeric: no unit symbol after the value

Please review the entries below; each comes with its answer.
Cc1onc(-c2ccccc2Cl)c1C(=O)Nc1nnc(-c2ccc(Br)cc2)s1 :: 0.75
CCNc1oc(-c2cccc3ccccc23)nc1C#N :: 0.68

In plain terms, O=C(Nc1cccnc1)C1CC(c2ccc(Cl)c(Cl)c2)=NO1 (stereo not drawn) has a documented fold increase in Dox EC50 of 1.32

Lookup result for Cc1ccc(C(=O)COc2ccccc2-c2ccccc2)cc1C ; measured fold increase in Dox EC50: 0.9

Record COc1cc(C(c2sc3ncnn3c2O)N2CCN(c3ccccc3F)CC2)cc(OC)c1OC (stereo not drawn) , field fold increase in Dox EC50: 0.81

Entry C=CCNC(=S)NNC(=O)COc1ccc(Br)cc1 — recorded fold increase in Dox EC50 = 0.71

Quick note, fold increase in Dox EC50 for O=C(CC(=O)N/N=C/c1ccccc1O)NCc1cccnc1 landed at 0.39

In plain terms, COC(=O)N/N=C/c1ccc(-c2ccc(C)c(Cl)c2)o1 has a documented fold increase in Dox EC50 of 0.63

So, c1ccc(C(c2ccccc2)N2CCN(c3nc4ccccc4n4cnnc34)CC2)cc1 ? Its fold increase in Dox EC50 was 0.81

# fold increase in Dox EC50 (compound: COC(=O)c1cnn(-c2cc(Oc3ccccc3)ncn2)c1N ) is 0.76

fold increase in Dox EC50 for Cc1c(C(=O)Nc2nnc(C(F)(F)F)s2)oc2ccccc12 is 2.05

The reported fold increase in Dox EC50 of the compound O=C(N/N=C/c1ccccn1)c1cc(-c2ccc3ccccc3c2)n[nH]1 was 0.75

The compound listed as COc1ccc(Cc2nnc(N/N=C/c3ccc(O)cc3O)[nH]c2=O)cc1OC has a reported fold increase in Dox EC50 of 0.15

CC/C(=N\NC(=O)C(N)=O)c1ccccc1O yielded fold increase in Dox EC50 of 0.61

Value of fold increase in Dox EC50 reported for the compound O=C1NC(=Nc2ccccc2)SC1Cc1cccc(Cl)c1Cl (stereo not drawn) is 1.21

Noted for Nc1ccc(C(=O)OCC(=O)N2c3ccccc3Sc3ccccc32)cc1[N+](=O)[O-] : its fold increase in Dox EC50 reads 1.29

So for Cc1cccc(-n2c(SCC(=O)Nc3ncc(Cl)cc3Cl)nc3ccccc32)c1 , the logged fold increase in Dox EC50 turned out to be 0.81

Record Cc1ccc(C(=O)NNC(=O)c2ccc(SCC3CCCO3)c([N+](=O)[O-])c2)cc1 (stereo not drawn) . Reported fold increase in Dox EC50: 0.56

Reported fold increase in Dox EC50 of CCC(Sc1nc2ccccc2o1)C(=O)Nc1nnc(C)s1 (stereo not drawn) : 1.34

Kindly note the recorded fold increase in Dox EC50 for COc1cccc(/C=N/NC(=O)C(=O)N2CCCC2)c1O , which is 0.67

// sample COc1ncnc2c1oc1nc(CC(C)C)c3c(c12)CCCC3 , its fold increase in Dox EC50 was 0.66

In plain terms, Cc1nnc2sc(-c3ccncc3)nn12 has a documented fold increase in Dox EC50 of 0.8

Looking up Cc1cc(=O)oc2c1ccc1oc(/C(=N/O)c3ccccc3)c(C)c12 , I found its fold increase in Dox EC50 recorded as 1.3
